- experiment: Cytotoxicity against human HepG2.2.15 cells
- Assay type: cell-based, HepG2 2.2.15
Reported CC50 values are given for each entry in this list.
assayMetric: CC50

- smilesText: "C=C(C)[C@H](OC(=O)c1ccccc1)[C@H](C[C@@H](C)C1=C2C[C@H](OC(=O)c3ccccc3)[C@H]3[C@@]4(C)CCC(=O)C(C)(C)[C@@H]4CC[C@]3(C)[C@@]2(C)CC1)OC(=O)c1ccccc1"
  observedMeasurement: "> 2300 µM"
- smilesText: "C=C(C)[C@H](OC(C)=O)[C@H](C[C@@H](C)[C@]12CC[C@@]3(C)[C@@]1(C[C@H](OC(C)=O)[C@H]1[C@@]4(C)CCC(=O)C(C)(C)[C@@H]4CC[C@@]13C)O2)OC(C)=O"
  observedMeasurement: "> 2600 µM"
- smilesText: "CCC(=O)O[C@@H](C[C@@H](C)[C@]12CC[C@@]3(C)[C@@]1(C[C@H](OC(=O)CC)[C@H]1[C@@]4(C)CCC(=O)C(C)(C)[C@@H]4CC[C@@]13C)O2)[C@@H](OC(=O)CC)C(C)(C)O"
  observedMeasurement: "> 1200 µM"
- smilesText: "C=C(C)[C@H](OC(=O)/C=C/c1ccccc1)[C@H](C[C@@H](C)[C@]12CC[C@@]3(C)[C@@]1(C[C@H](OC(=O)/C=C/c1ccccc1)[C@H]1[C@@]4(C)CCC(=O)C(C)(C)[C@@H]4CC[C@@]13C)O2)OC(=O)/C=C/c1ccccc1"
  observedMeasurement: "> 1600 µM"
- smilesText: "CC(=O)O[C@@H](C[C@@H](C)C1=C2C[C@H](OC(C)=O)[C@H]3[C@@]4(C)CCC(=O)C(C)(C)[C@@H]4CC[C@]3(C)[C@@]2(C)CC1)[C@@H](OC(C)=O)C(C)(C)O"
  observedMeasurement: "> 2000 µM"

* * *

- experiment: Cytotoxicity against human HepG2.2.15 cells
- Assay type: cell-based, HepG2 2.2.15

- smilesText: "C=C(C)[C@H](OC(=O)/C=C/c1ccccc1)[C@H](C[C@@H](C)C1=C2C[C@H](OC(=O)/C=C/c3ccccc3)[C@H]3[C@@]4(C)CCC(=O)C(C)(C)[C@@H]4CC[C@]3(C)[C@@]2(C)CC1)OC(=O)/C=C/c1ccccc1"
  CC50: "> 1800 µM"
- smilesText: "C[C@H](C[C@H](OC(=O)/C=C/c1ccccc1)[C@@H](OC(=O)/C=C/c1ccccc1)C(C)(C)O)C1=C2C[C@H](OC(=O)/C=C/c3ccccc3)[C@H]3[C@@]4(C)CCC(=O)C(C)(C)[C@@H]4CC[C@]3(C)[C@@]2(C)CC1"
  CC50: "> 1400 µM"
- smilesText: "C[C@H](C[C@H](O)[C@@H](O)C(C)(C)O)C1=C2C[C@H](O)[C@H]3[C@@]4(C)CCCC(C)(C)[C@@H]4CC[C@]3(C)[C@@]2(C)CC1"
  CC50: "< 80 µM"
- smilesText: "C[C@H](C[C@H](OC(=O)c1ccccc1)[C@@H](OC(=O)c1ccccc1)C(C)(C)O)[C@]12CC[C@@]3(C)[C@@]1(C[C@H](OC(=O)c1ccccc1)[C@H]1[C@@]4(C)CCC(=O)C(C)(C)[C@@H]4CC[C@@]13C)O2"
  CC50: "> 1700 µM"
- smilesText: "C=C(C)[C@H](OC(=O)CC)[C@H](C[C@@H](C)[C@]12CC[C@@]3(C)[C@@]1(C[C@H](OC(=O)CC)[C@H]1[C@@]4(C)CCC(=O)C(C)(C)[C@@H]4CC[C@@]13C)O2)OC(=O)CC"
  CC50: "> 2500 µM"
- smilesText: "C=C(C)[C@H](OC(=O)c1ccccc1)[C@H](C[C@@H](C)[C@]12CC[C@@]3(C)[C@@]1(C[C@H](OC(=O)c1ccccc1)[C@H]1[C@@]4(C)CCC(=O)C(C)(C)[C@@H]4CC[C@@]13C)O2)OC(=O)c1ccccc1"
  CC50: "> 1600 µM"
- smilesText: "C=C(C)[C@H](OC(C)=O)[C@H](C[C@@H](C)C1=C2C[C@H](OC(C)=O)[C@H]3[C@@]4(C)CCC(=O)C(C)(C)[C@@H]4CC[C@]3(C)[C@@]2(C)CC1)OC(C)=O"
  CC50: "520 µM"
- smilesText: "CCC(=O)O[C@@H](C[C@@H](C)C1=C2C[C@H](OC(=O)CC)[C@H]3[C@@]4(C)CCC(=O)C(C)(C)[C@@H]4CC[C@]3(C)[C@@]2(C)CC1)[C@@H](OC(=O)CC)C(C)(C)O"
  CC50: "> 1400 µM"
- smilesText: "CC(=O)O[C@@H](C[C@@H](C)[C@]12CC[C@@]3(C)[C@@]1(C[C@H](OC(C)=O)[C@H]1[C@@]4(C)CCC(=O)C(C)(C)[C@@H]4CC[C@@]13C)O2)[C@@H](OC(C)=O)C(C)(C)O"
  CC50: "> 2000 µM"
- smilesText: "C=C(C)[C@H](OC(=O)C(C)C)[C@H](C[C@@H](C)[C@]12CC[C@@]3(C)[C@@]1(C[C@H](OC(=O)C(C)C)[C@H]1[C@@]4(C)CCC(=O)C(C)(C)[C@@H]4CC[C@@]13C)O2)OC(=O)C(C)C"
  CC50: "> 1300 µM"
- smilesText: "Cc1ccc(S(=O)(=O)N/N=C2\\CC[C@@]3(C)[C@@H](CC[C@@]4(C)[C@H]3[C@@H](O)CC3=C([C@H](C)C[C@H](O)[C@@H](O)C(C)(C)O)CC[C@@]34C)C2(C)C)cc1"
  CC50: "< 29 µM"
- smilesText: "C=C(C)[C@H](OC(=O)C(C)C)[C@H](C[C@@H](C)C1=C2C[C@H](OC(=O)C(C)C)[C@H]3[C@@]4(C)CCC(=O)C(C)(C)[C@@H]4CC[C@]3(C)[C@@]2(C)CC1)OC(=O)C(C)C"
  CC50: "> 1600 µM"
- smilesText: "C[C@H](C[C@H](O)[C@@H](O)C(C)(C)O)C1=C2C[C@H](O)[C@H]3[C@@]4(C)CCC(=O)C(C)(C)[C@@H]4CC[C@]3(C)[C@@]2(C)CC1"
  CC50: "62 µM"
- smilesText: "C=C(C)[C@H](OC(=O)CC)[C@H](C[C@@H](C)C1=C2C[C@H](OC(=O)CC)[C@H]3[C@@]4(C)CCC(=O)C(C)(C)[C@@H]4CC[C@]3(C)[C@@]2(C)CC1)OC(=O)CC"
  CC50: "> 1200 µM"
- smilesText: "CC(C)C(=O)O[C@@H](C[C@@H](C)C1=C2C[C@H](OC(=O)C(C)C)[C@H]3[C@@]4(C)CCC(=O)C(C)(C)[C@@H]4CC[C@]3(C)[C@@]2(C)CC1)[C@@H](OC(=O)C(C)C)C(C)(C)O"
  CC50: "> 2200 µM"
- smilesText: "C[C@H](C[C@H](OC(=O)c1ccccc1)[C@@H](OC(=O)c1ccccc1)C(C)(C)O)C1=C2C[C@H](OC(=O)c3ccccc3)[C@H]3[C@@]4(C)CCC(=O)C(C)(C)[C@@H]4CC[C@]3(C)[C@@]2(C)CC1"
  CC50: "> 1500 µM"
